Biological target: GLUT1 (Homo sapiens)
Sequence (P11166 whole entry, species assumed): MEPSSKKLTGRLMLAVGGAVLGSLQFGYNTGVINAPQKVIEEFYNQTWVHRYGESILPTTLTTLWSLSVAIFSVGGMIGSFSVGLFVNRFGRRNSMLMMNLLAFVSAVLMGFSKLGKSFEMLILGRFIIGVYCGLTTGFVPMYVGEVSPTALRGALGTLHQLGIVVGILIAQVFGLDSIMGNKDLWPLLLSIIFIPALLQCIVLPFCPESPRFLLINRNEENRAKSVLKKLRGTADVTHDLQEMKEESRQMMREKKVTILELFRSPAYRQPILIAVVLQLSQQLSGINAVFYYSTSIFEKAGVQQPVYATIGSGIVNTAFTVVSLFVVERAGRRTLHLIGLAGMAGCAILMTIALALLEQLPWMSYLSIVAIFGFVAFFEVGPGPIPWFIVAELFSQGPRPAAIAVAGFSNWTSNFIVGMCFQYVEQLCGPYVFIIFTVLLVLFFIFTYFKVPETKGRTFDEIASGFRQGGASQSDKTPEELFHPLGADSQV
Assay: Indirect measurement of GLUT1 activity by quantification of intracellular ATP levels (glucose induced ATP increase)
Assay type: cell-based
Design: endogenous in cells; host or cells: DLD1 or CHO-K1
Conditions: read-out: IC50 regarding glucose induced ATP increase (GLUT1 inhibition)
Readout Label: IC50 (nM)

See these solved cases before continuing.
# Query Smiles, Unit Annotation, IC50
rows = [
    ("Cc1c(NC(=O)c2cc(C(F)(F)F)nc3ccc(Br)cc23)c(C(=O)N(C)C)nn1Cc1ccc(F)cc1", "nM", 2100),
    ("CCc1cc(Cn2nc(C(F)(F)F)c(NC(=O)c3cc(C(N)=O)nc4cc(F)c(Cl)cc34)c2C)on1", "nM", 8.9),
]

(1) Cc1nn(Cc2ccc(C(=O)NCCC(N)=O)cc2)c(C)c1NC(=O)c1cc(C(F)(F)F)nc2ccc(Br)cc12
(2) Cc1c(NC(=O)c2cc(C(F)(F)F)nc3cc(F)c(F)cc23)c(C(F)(F)F)nn1Cc1ccc(F)cc1
-- ask Hello, I am sorting some records. Could you say if 1 or 2 has the smaller IC50 value? Kindly state the label of the option you pick.
-- reply 1
